// data source = patent US11944622B2

Here the recorded EC50 is given for each entry.
- measured-on: APJ Receptor (Homo sapiens, UniProt P35414)
- Sequence (P35414 1-380): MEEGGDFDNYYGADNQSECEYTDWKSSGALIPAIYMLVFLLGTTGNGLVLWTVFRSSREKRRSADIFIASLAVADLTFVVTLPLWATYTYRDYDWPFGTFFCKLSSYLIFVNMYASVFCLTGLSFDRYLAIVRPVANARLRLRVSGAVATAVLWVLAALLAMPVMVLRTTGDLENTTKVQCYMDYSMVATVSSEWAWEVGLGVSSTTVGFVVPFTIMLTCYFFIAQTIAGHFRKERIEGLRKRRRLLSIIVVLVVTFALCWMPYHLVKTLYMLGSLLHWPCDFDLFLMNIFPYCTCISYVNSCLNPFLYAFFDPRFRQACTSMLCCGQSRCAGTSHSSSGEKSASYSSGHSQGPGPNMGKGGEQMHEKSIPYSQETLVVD
- assay-name: APJ cAMP assay (DiscoverX enzyme fragment complementation; inhibition of forskolin-stimulated cAMP)
- measurement-parameters: CHO-K1 cell line stably expressing the APJ Receptor; EC80 forskolin; 30 minutes at 37° C.; read-out: Potency Range (APJ cAMP EC50)
outcome-measure: EC50

molecule: CCOc1cccc(-c2nc3nnc(NS(=O)(=O)C4CC4)cc3n2-c2c(OC)cccc2OC)n1 [Example 119]
result: 1 to 100 nM

molecule: CCOc1cccc(-c2nc3nc(N4CC(O)C4)c(NS(C)(=O)=O)nc3n2-c2c(OC)cccc2OC)n1 [Example 136]
result: 100 to 10000 nM

molecule: CCOc1cccc(-c2nc3nc(Cl)c(NS(=O)(=O)C4CCOCC4)nc3n2-c2c(OC)cccc2OC)n1 [Example 111]
result: 1 to 100 nM

molecule: CCOc1cccc(-c2nc3nnc(NS(C)(=O)=O)cc3n2-c2c(OC)cccc2OC)n1 [Example 21]
result: 1 to 100 nM

molecule: COc1cccc(-c2nc3ncc(NS(C)(=O)=O)nc3n2-c2c(OC)cccc2OC)n1 [Example 51]
result: 1 to 100 nM

molecule: CCOc1cccc(-c2nc3ncc(NS(=O)(=O)Cc4ccc(F)cn4)nc3n2-c2c(OC)cccc2OC)n1 [Example 78]
result: < 1 nM

molecule: CCOc1cccc(-c2nc3nc(Cl)c(NS(=O)(=O)Cc4ccc(F)cc4)nc3n2-c2c(OC)cccc2OC)n1 [Example 108]
result: < 1 nM

molecule: CCOc1cccc(-c2nc3ncc(NS(=O)(=O)Cc4cnccn4)nc3n2-c2c(OC)cccc2OC)n1 [Example 69]
result: 1 to 100 nM

molecule: CCOc1cccc(-c2nc3nc(CC)c(NS(C)(=O)=O)nc3n2-c2c(OC)cccc2OC)n1 [Example 86]
result: 1 to 100 nM

molecule: CCOc1cccc(-c2nc3ncc(NS(=O)(=O)CCC(C)(C)O)nc3n2-c2c(OC)cccc2OC)n1 [Example 60]
result: 1 to 100 nM

molecule: CCOc1cccc(-c2nc3nc(Cl)c(NS(=O)(=O)Cc4ncccn4)nc3n2-c2c(OC)cccc2OC)n1 [Example 109]
result: 1 to 100 nM

molecule: CCOc1cccc(-c2nc3ncc(NS(=O)(=O)Cc4ncccn4)nc3n2-c2c(OC)cccc2OC)n1 [Example 28]
result: < 1 nM

molecule: CCOc1cccc(-c2nc3nc(Cl)c(NS(=O)(=O)Cc4ccc(F)cn4)nc3n2-c2c(OC)cccc2OC)n1 [Example 96]
result: < 1 nM

molecule: CCOc1cccc(-c2nc3nc(NS(=O)(=O)C4CC4)cnc3n2-c2c(OC)cccc2OC)n1 [Example 92]
result: 1 to 100 nM

molecule: CCOc1cccc(-c2nc3nc(CC4CCC4)c(NS(C)(=O)=O)nc3n2-c2c(OC)cccc2OC)n1 [Example 88]
result: < 1 nM

###

Here the recorded EC50 is given for each entry.
- measured-on: APJ Receptor (Homo sapiens, UniProt P35414)
- assay-name: APJ cAMP assay (DiscoverX enzyme fragment complementation; inhibition of forskolin-stimulated cAMP)
- measurement-parameters: CHO-K1 cell line stably expressing the APJ Receptor; EC80 forskolin; 30 minutes at 37° C.; read-out: Potency Range (APJ cAMP EC50)

smi: CCOc1cccc(-c2nc3ncc(NS(=O)(=O)C[C@H]4C[C@](C)(O)C4)nc3n2-c2c(OC)cccc2OC)n1
EC50: 1 to 100 nM
--
smi: CCOc1cccc(-c2nc3ncc(NS(=O)(=O)C4COC4)nc3n2-c2c(OC)cccc2OC)n1
EC50: 1 to 100 nM
--
smi: CCOc1cccc(-c2nc3nc(Cl)c(NS(=O)(=O)Cc4ncccc4F)nc3n2-c2c(OC)cccc2OC)n1
EC50: 1 to 100 nM
--
smi: CCOc1cccc(-c2nc3nccnc3n2-c2c(OC)cccc2OC)n1
EC50: 100 to 10000 nM
--
smi: CCOc1cccc(-c2nc3ncc(NS(=O)(=O)C[C@H]4CCN(C)C(=O)C4)nc3n2-c2c(OC)cccc2OC)n1
EC50: < 1 nM
--
smi: CCOc1cccc(-c2nc3nnc(NS(=O)(=O)Cc4ccc(F)cn4)cc3n2-c2c(OC)cccc2OC)n1
EC50: < 1 nM
--
smi: CCOc1cccc(-c2nc3ncc(NS(=O)(=O)[C@H]4C[C@H](O)C4)nc3n2-c2c(OC)cccc2OC)n1
EC50: 1 to 100 nM

###

- measured-on: APJ Receptor (Homo sapiens)
- Sequence (P35414 1-380): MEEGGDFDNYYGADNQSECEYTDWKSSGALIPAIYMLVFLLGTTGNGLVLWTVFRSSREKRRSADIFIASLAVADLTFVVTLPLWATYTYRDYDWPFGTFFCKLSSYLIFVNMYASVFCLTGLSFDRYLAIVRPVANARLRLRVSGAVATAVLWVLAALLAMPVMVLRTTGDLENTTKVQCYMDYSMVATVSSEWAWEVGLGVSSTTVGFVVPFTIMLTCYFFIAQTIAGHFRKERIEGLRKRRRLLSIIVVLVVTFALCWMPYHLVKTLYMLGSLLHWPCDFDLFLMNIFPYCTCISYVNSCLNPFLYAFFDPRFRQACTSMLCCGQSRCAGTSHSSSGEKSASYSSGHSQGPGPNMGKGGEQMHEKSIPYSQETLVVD
- assay-name: APJ cAMP assay (DiscoverX enzyme fragment complementation; inhibition of forskolin-stimulated cAMP)
- measurement-parameters: CHO-K1 cell line stably expressing the APJ Receptor; EC80 forskolin; 30 minutes at 37° C.; read-out: Potency Range (APJ cAMP EC50)
Here the recorded EC50 is given for each entry.

molecule: CCOc1cccc(-c2nc3nc(Cl)c(NS(=O)(=O)Cc4ccc(C)c(F)c4)nc3n2-c2c(OC)cccc2OC)n1 [Example 107]
EC50: < 1 nM
//
molecule: CCOc1cccc(-c2nc3ncc(NCC4CC4)nc3n2-c2c(OC)cccc2OC)n1 [Example 67]
EC50: 1 to 100 nM
//
molecule: CCOc1cccc(-c2nc3ncc(NS(=O)(=O)N4CCOCC4)nc3n2-c2c(OC)cccc2OC)n1 [Example 37]
EC50: < 1 nM
//
molecule: CCOc1cccc(-c2nc3ncc(NS(=O)(=O)N4CCNCC4)nc3n2-c2c(OC)cccc2OC)n1 [Example 74]
EC50: 1 to 100 nM
//
molecule: CCOc1cccc(-c2nc3nc(N)cnc3n2-c2c(OC)cccc2OC)n1 [Example 16]
EC50: 1 to 100 nM
//
molecule: CCOc1cccc(-c2nc3ncc(NS(=O)(=O)CC4(O)CC4)nc3n2-c2c(OC)cccc2OC)n1 [Example 61]
EC50: 1 to 100 nM
//
molecule: COc1cccc(-c2nc3ncc(NS(=O)(=O)c4ccccn4)nc3n2-c2c(OC)cccc2OC)n1 [Example 52]
EC50: 1 to 100 nM
//
molecule: CCOc1cccc(-c2nc3nnc(NS(C)(=O)=O)c(C)c3n2-c2c(OC)cccc2OC)n1 [Example 139]
EC50: 1 to 100 nM

###

- measured-on: APJ Receptor (Homo sapiens, UniProt P35414)
- assay-name: APJ cAMP assay (DiscoverX enzyme fragment complementation; inhibition of forskolin-stimulated cAMP)
- measurement-parameters: CHO-K1 cell line stably expressing the APJ Receptor; EC80 forskolin; 30 minutes at 37° C.; read-out: Potency Range (APJ cAMP EC50)
outcome-measure: EC50

compound: CCOc1cccc(-c2nc3ncc(NS(C)(=O)=O)nc3n2-c2c(OC)ccnc2OC)n1 (atropisomer, axis not shown) [Example 84]
outcome-measure: EC50
result: 1 to 100 nM
--
compound: CCOc1cccc(-c2nc3nc(Cl)c(NS(=O)(=O)N4CCC(O)CC4)nc3n2-c2c(OC)cccc2OC)n1 [Example 116]
outcome-measure: EC50
result: 1 to 100 nM
--
compound: CCOc1cccc(-c2nc3ncc(N(Cc4ccccc4)Cc4ccccc4)nc3n2-c2c(OC)cccc2OC)n1 [Example 11]
outcome-measure: EC50
result: 1 to 100 nM
--
compound: CCOc1cccc(-c2nc3nc(Cl)c(NS(=O)(=O)C4CC4)nc3n2-c2c(OC)cccc2OC)n1 [Example 97]
outcome-measure: EC50
result: 1 to 100 nM
--
compound: COc1cccc(-c2nc3ncc(NS(=O)(=O)c4ncccn4)nc3n2-c2c(OC)cccc2OC)n1 [Example 53]
outcome-measure: EC50
result: 1 to 100 nM
--
compound: CCOc1cccc(-c2nc3ncc(N(C)S(C)(=O)=O)nc3n2-c2c(OC)cccc2OC)n1 [Example 32]
outcome-measure: EC50
result: 100 to 10000 nM
--
compound: CCOc1cccc(-c2nc3nc(F)c(NS(C)(=O)=O)nc3n2-c2c(OC)cccc2OC)n1 [Example 146]
outcome-measure: EC50
result: 1 to 100 nM
--
compound: CCOc1cccc(-c2nc3nnc(NS(=O)(=O)Cc4ncc(Cl)cn4)cc3n2-c2c(OC)cccc2OC)n1 [Example 144]
outcome-measure: EC50
result: < 1 nM
--
compound: CCOc1cccc(-c2nc3nc(C)c(NS(C)(=O)=O)nc3n2-c2c(OC)cccc2OC)n1 [Example 87]
outcome-measure: EC50
result: 1 to 100 nM
--
compound: CCOc1cccc(-c2nc3nc(OC4CC4)c(NS(C)(=O)=O)nc3n2-c2c(OC)cccc2OC)n1 [Example 89]
outcome-measure: EC50
result: 100 to 10000 nM
--
compound: CCOc1cccc(-c2nc3nc(Cl)c(NS(=O)(=O)Cc4cccc(F)c4)nc3n2-c2c(OC)cccc2OC)n1 [Example 143]
outcome-measure: EC50
result: 1 to 100 nM
--
compound: CCOc1cccc(-c2nc3ncc(C#Cc4ccccc4)nc3n2-c2c(OC)cccc2OC)n1 [Example 6]
outcome-measure: EC50
result: 100 to 10000 nM
--
compound: CCOc1cccc(-c2nc3nc(COC(F)F)c(NS(C)(=O)=O)nc3n2-c2c(OC)cccc2OC)n1 [Example 141]
outcome-measure: EC50
result: 1 to 100 nM
--
compound: CCOc1cccc(-c2nc3nc(NS(=O)(=O)CC4(O)CNC4)cnc3n2-c2c(OC)cccc2OC)n1 [Example 93]
outcome-measure: EC50
result: < 1 nM
--
compound: CCOc1cccc(-c2nc3nnc(NS(=O)(=O)Cc4ncc(O)cn4)cc3n2-c2c(OC)cccc2OC)n1 [Example 129]
outcome-measure: EC50
result: 1 to 100 nM
--
compound: CCOc1cccc(-c2nc3nc(NC(=O)Cc4ccccc4)cnc3n2-c2c(OC)cccc2OC)n1 [Example 17]
outcome-measure: EC50
result: 1 to 100 nM
--
compound: CCOc1cccc(-c2nc3nc(NS(C)(=O)=O)cnc3n2-c2c(OC)cccc2OC)n1 [Example 43]
outcome-measure: EC50
result: 1 to 100 nM
--
compound: CCOc1cccc(-c2nc3nc(Cl)c(NS(=O)(=O)Cc4ncc(C)cn4)nc3n2-c2c(OC)cccc2OC)n1 [Example 142]
outcome-measure: EC50
result: < 1 nM
--
compound: CCOc1cccc(-c2nc3ncc(NS(=O)(=O)N4CCCCC4)nc3n2-c2c(OC)cccc2OC)n1 [Example 75]
outcome-measure: EC50
result: < 1 nM
--
compound: CCOc1cccc(-c2nc3ncc(NCc4ccccc4)nc3n2-c2c(OC)cccc2OC)n1 [Example 13]
outcome-measure: EC50
result: 1 to 100 nM
--
compound: CCOc1cccc(-c2nc3ncc(NS(=O)(=O)C4CCC4)nc3n2-c2c(OC)cccc2OC)n1 [Example 31]
outcome-measure: EC50
result: 1 to 100 nM
--
compound: CCOc1cccc(-c2nc3nnc(NS(=O)(=O)Cc4ncccn4)cc3n2-c2c(OC)cccc2OC)n1 [Example 127]
outcome-measure: EC50
result: < 1 nM
--
compound: CCOc1cccc(-c2nc3nc(CO)c(NS(C)(=O)=O)nc3n2-c2c(OC)cccc2OC)n1 [Example 140]
outcome-measure: EC50
result: 1 to 100 nM
--
compound: CCOc1cccc(-c2nc3ncc(NS(=O)(=O)Cc4ncc(F)cn4)nc3n2-c2c(OC)cccc2OC)n1 [Example 79]
outcome-measure: EC50
result: < 1 nM
--
compound: CCOc1cccc(-c2nc3ncc(NS(C)(=O)=O)nc3n2C(C)C)n1 [Example 59]
outcome-measure: EC50
result: 100 to 10000 nM
--
compound: CCOc1cccc(-c2nc3ncc(NS(=O)(=O)c4ccccn4)nc3n2-c2c(OC)cccc2OC)n1 [Example 23]
outcome-measure: EC50
result: < 1 nM
--
compound: CCOc1cccc(-c2nc3ncc(NS(C)(=O)=O)nc3n2-c2c(OC)ccnc2OC)n1 [Example 68]
outcome-measure: EC50
result: 1 to 100 nM
--
compound: CCOc1cccc(-c2nc3ncc(NS(C)(=O)=O)nc3n2C(CC)CC)n1 [Example 58]
outcome-measure: EC50
result: 1 to 100 nM
--
compound: CC#CCS(=O)(=O)Nc1nc2c(nc1Cl)nc(-c1cccc(OCC)n1)n2-c1c(OC)cccc1OC [Example 110]
outcome-measure: EC50
result: < 1 nM
--
compound: CCOc1cccc(-c2nc3nc(Cl)c(NS(=O)(=O)N(C)C4CC4)nc3n2-c2c(OC)cccc2OC)n1 [Example 112]
outcome-measure: EC50
result: < 1 nM
